Species: Cavia porcellus
PROCEDURE TEXT: Calcium channel agonist activity as percent increase in tonic contractile response in guinea pig left atrium
Assay type: functional
RECORDED CONDITIONS: Cardiac atrium
ATTRIBUTE MEASURED: EC50 (µM)

Answered cases to consult:
| COMPOUND | EC50 / µM |
| --- | --- |
| CC1=NC(C)=C([N+](=O)[O-])C(c2cccc(Cl)n2)/C1=C(/O)OC(C)C (centres undefined) | 5.96 |
| CCO/C(O)=C1/C(C)=NC(C)=C([N+](=O)[O-])C1c1cccc(C)n1 (centres undefined) | 12.3 |

(P) CC1=NC(C)=C([N+](=O)[O-])C(c2cccc(C)n2)/C1=C(/O)OC(C)C (centres undefined)
(Q) CC1=NC(C)=C([N+](=O)[O-])C(c2ncccc2C)/C1=C(/O)OC(C)C (centres undefined)
Which of the two gives a bigger number for EC50: P or Q ? Lab log: write the label of the selected item as the result.
Q
(Q: 9.97 µM, P: 1.81 µM)
